# TARGET OR TEST SYSTEM: Dihydrofolate reductase (Homo sapiens)
# Sequence (P00374 whole entry): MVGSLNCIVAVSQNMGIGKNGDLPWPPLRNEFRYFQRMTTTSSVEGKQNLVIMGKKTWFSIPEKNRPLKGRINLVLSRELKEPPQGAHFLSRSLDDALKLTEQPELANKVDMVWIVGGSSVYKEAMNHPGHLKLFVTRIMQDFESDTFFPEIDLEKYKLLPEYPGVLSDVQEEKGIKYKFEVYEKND

COMPOUND | U | IC50
CC(Cc1ccc(C(=O)NC(CCC(=O)O)C(=O)O)cc1)c1cnc2nc(N)nc(N)c2n1 (stereo unspecified) | nM | 40

* * *

# TARGET OR TEST SYSTEM: reduced folate carrier (Mus musculus)
# PROCEDURE DETAILS: Binding affinity towards Dihydrofolate reductase derived from L1210 cells using [3H]- MTX as the radioligand
PARAMETER: Ki (µM)

MOLECULE SMILES | ASSAY RESULT
Nc1nc(N)c2nc(CCc3ccc(C(=O)N[C@@H](CCC(=O)O)C(=O)O)cc3)cnc2n1 | 1.2
